# STUDY TARGET: CHIKV nsP2 ATPase (Chikungunya virus)
# Sequence (Q8JUX6 536-1333): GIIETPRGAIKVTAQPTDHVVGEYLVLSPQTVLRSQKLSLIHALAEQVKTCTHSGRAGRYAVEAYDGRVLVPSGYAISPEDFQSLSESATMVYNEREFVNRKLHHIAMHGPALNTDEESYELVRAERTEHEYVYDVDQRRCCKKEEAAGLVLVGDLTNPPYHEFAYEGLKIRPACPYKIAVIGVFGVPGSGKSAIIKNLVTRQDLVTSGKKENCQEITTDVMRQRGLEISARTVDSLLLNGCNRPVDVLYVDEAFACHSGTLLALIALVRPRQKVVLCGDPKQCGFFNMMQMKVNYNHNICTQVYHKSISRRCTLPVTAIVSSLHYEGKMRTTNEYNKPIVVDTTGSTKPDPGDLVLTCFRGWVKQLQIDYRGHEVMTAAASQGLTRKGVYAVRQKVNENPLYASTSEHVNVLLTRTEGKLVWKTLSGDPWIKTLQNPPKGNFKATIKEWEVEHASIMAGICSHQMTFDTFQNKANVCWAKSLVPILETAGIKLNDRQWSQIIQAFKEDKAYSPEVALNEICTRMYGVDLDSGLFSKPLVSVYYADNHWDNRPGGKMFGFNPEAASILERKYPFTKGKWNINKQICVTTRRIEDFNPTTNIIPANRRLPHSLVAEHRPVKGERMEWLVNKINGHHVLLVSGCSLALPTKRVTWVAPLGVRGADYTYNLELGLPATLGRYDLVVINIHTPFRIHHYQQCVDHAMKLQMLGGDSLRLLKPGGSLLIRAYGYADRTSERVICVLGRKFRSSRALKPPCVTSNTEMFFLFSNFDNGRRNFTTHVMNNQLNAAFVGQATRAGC
# ASSAY PROCEDURE: Secondary CHIKV nsP2 ATPase assay (ADP-Glo)
# EXPERIMENTAL CONDITIONS: read-out: ADP-Glo IC50; Avge n=2; 1 nM CHIKV nsP2fl, 30 μM ATP, 30 min pre-incubation
Below: a set of entries, each annotated with reported pIC50.
pIC50 field: float, defined as -log10 of concentration (mol/L).

1) CCCC(C(=O)O)N1C(=O)/C(=C/c2ccc(-c3ccc(Br)cc3)o2)SC1=S (stereo not shown)
4.89
2) COc1ccc(OC)c(N2C(=O)/C(=C/c3ccco3)C(=O)NC2=S)c1
5.42
3) Cc1ccnc(OC2CCOC3(CCN(C(=O)C4(c5ccccc5)CCCC4)CC3)C2)c1 (stereo not shown)
5.40

Now look at this one.
IN: Checklist item: pIC50 tested on CHIKV nsP2 ATPase (Chikungunya virus), entry O=C(C1CCCN(c2ccc(Sc3ccc(Br)cc3)nn2)C1)N1CCSCC1 (stereo not shown) , value?
OUT: 5.14
